tested on: SDMA; test: SDMA Inhibition Assay in HCT-116 cells; type: cell-based; conditions: Homo sapiens, HCT-116, 96 hours

[
  {
    "molecule": "Cn1ncc2c(N)nc3cc(F)c(C(=O)N(Cc4ccc5c(c4)OC(F)(F)O5)[C@H]4CCOC4)cc3c21",
    "EC50 (µM)": 0.123
  },
  {
    "molecule": "Nc1nc2cnc(C(=O)N3CCOC[C@@H]3c3ccc4c(c3)OC(F)(F)O4)cc2c2c1COC2",
    "EC50 (µM)": 0.938
  },
  {
    "molecule": "CC1OCc2c1c(N)nc1cc(F)c(C(=O)N3CCOC[C@@H]3c3ccc4c(c3)OC(F)(F)O4)cc21 (single isomer, unassigned) [I-34 (PEAK2)]",
    "EC50 (µM)": 0.0607
  },
  {
    "molecule": "Cn1ncc2c(N)nc3cnc(C(=O)N4CCOC[C@@H]4c4ccc5c(c4)OC(F)(F)O5)cc3c21",
    "EC50 (µM)": 0.147
  }
]
